# ASSAY_SYSTEM: Plk1 (Homo sapiens (Human))
# Sequence (P53350 whole entry): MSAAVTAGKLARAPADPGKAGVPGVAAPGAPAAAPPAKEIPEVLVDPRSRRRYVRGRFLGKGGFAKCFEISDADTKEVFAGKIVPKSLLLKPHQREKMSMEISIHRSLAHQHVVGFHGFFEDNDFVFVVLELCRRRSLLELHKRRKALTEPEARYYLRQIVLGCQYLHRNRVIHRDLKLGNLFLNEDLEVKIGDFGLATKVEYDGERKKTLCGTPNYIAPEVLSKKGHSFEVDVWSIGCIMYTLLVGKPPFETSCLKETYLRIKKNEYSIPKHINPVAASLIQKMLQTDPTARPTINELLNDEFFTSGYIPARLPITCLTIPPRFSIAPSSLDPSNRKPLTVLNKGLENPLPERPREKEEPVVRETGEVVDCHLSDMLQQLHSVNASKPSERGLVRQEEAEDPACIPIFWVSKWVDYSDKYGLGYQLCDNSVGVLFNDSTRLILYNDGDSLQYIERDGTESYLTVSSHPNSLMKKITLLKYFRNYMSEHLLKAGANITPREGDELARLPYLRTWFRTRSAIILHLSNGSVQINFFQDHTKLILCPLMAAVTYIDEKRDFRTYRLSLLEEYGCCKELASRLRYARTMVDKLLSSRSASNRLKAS
# TEST_DESCRIPTION: KinaseProfiler off-target kinase profiling
# Assay type: biochemical
# CONDITION_LABEL: 10 μM, ATP near Km
ATTRIBUTE_MEASURED: Avg. POC (POC)
Answers are plain numbers, in POC.

Please supply Avg. POC for each of the following items, keeping them in order.
1. Cc1c(-c2cnn(C)c2)nn(-c2ccccc2)c1NC(=O)N[C@H]1CCCc2ccccc21 [Example 2]
2. COCc1ccc2c(c1)C(NC(=O)Nc1c(C)c(-c3cnn(C)c3)nn1-c1ccccc1)COC2 (stereo not shown) [Example 32]
3. Cc1c(-c2ccc(=O)n(C)c2)nn(-c2ccccc2)c1NC(=O)NC1CN(CC(F)(F)F)Cc2ccccc21 (stereo not shown) [Example 26]
4. Cc1c(-c2cnn(C)c2)nn(-c2ccccc2)c1NC(=O)NC1CCOc2cc(F)ccc21 (stereo not shown) [Example 12]

a:
[95, 108, 108, 98.5]
